Just for reference, patent US20100317607A1 is where these values come from.

system: H37Rv strain of M. tuberculosis; assay: Alamar Blue Susceptibility Test (MABA); type: cell-based; details: Mycobacterium tuberculosis; H37Rv strain of M. tuberculosis; Alamar Blue; read-out: MABA (TB growth inhibition, colourimetric assay)
Where a name gives a salt, the structure may show the parent alone.
Reported MIC values for the following compounds.

Compound | Measured property | Experimental value
FC(F)(F)c1ccc(CNc2nc(N3CCc4ccccc4C3)nc3ccccc23)cc1 [Compound 114, hydrochloride] | MIC | < 10 µM
c1ccc(CNc2nc(N3CCSCC3)nc3ccccc23)cc1 [Compound 140, hydrochloride] | MIC | < 10 µM
c1ccc(C2(Nc3nc(N4CCCC4)nc4ccccc34)CC2)cc1 [Compound 123] | MIC | 10 to 50 µM
CCCNc1nc(NCc2ccccc2)c2ccccc2n1 [Compound 67] | MIC | 10 to 50 µM
c1ccc2c(c1)CCN(c1nc(N3CCCCC3)c3ccccc3n1)C2 [Compound 113, hydrochloride] | MIC | 10 to 50 µM
Cc1ccc([C@@H](C)Nc2nc(N3CCCCC3)nc3ccccc23)cc1 [Compound 101] | MIC | 10 to 50 µM
Cc1ccc(CCNc2nc(N3CCCCC3)nc3ccccc23)cc1 [Compound 87, hydrochloride] | MIC | 10 to 50 µM
Fc1ccc(CNc2nc(N3CCCC3)nc3ccccc23)cc1 [Compound 172] | MIC | < 10 µM

IN: Under H37Rv strain of M. tuberculosis: MIC value of C[C@@H](Nc1nc(N2CCCCC2)nc2ccccc12)c1ccc(Cl)cc1 [Compound 96, hydrochloride] ?
OUT: < 10 µM

IN: Under H37Rv strain of M. tuberculosis: MIC value of Clc1ccccc1CNc1nc(N2CCCCC2)nc2ccccc12 [Compound 40] ?
OUT: < 10 µM

IN: Under H37Rv strain of M. tuberculosis: MIC value of COC(=O)[C@H](Cc1ccccc1)Nc1nc(N2CCCCC2)nc2ccccc12 [Compound 176] ?
OUT: 50 to 128 µM

IN: Under H37Rv strain of M. tuberculosis: MIC value of c1ccc2c(c1)CCN(c1nc(N3CCCCC3)nc3ccccc13)C2 [Compound 36] ?
OUT: < 10 µM

IN: Under H37Rv strain of M. tuberculosis: MIC value of Cc1ccc(C(C)(C)Nc2nc(N3CCCCC3)nc3ccccc23)cc1 [Compound 102] ?
OUT: 10 to 50 µM

###

test system: H37Rv strain of M. tuberculosis; test: Alamar Blue Susceptibility Test (MABA); format: cell-based; settings: Mycobacterium tuberculosis; H37Rv strain of M. tuberculosis; Alamar Blue; read-out: MABA (TB growth inhibition, colourimetric assay)
Where a name gives a salt, the structure may show the parent alone.
Measured property: MIC

Answered examples (4):
Molecule | MIC
Clc1ccc(CNc2nc(NCc3ccccc3)c3ccccc3n2)cc1 [Compound 127, hydrochloride] | < 10 µM
c1cncc(CNc2nc(N3CCCCC3)nc3ccccc23)c1 [Compound 47] | 50 to 128 µM
Clc1ccc(CNc2nc(N3CCCCC3)nc3ccccc23)cc1Cl [Compound 68] | < 10 µM
COC(=O)[C@@H](Nc1nc(N2CCCCC2)nc2ccccc12)c1ccccc1 [Compound 175] | 10 to 50 µM

IN: Please give the measured MIC for this molecule: Clc1ccc(N2CCN(c3nc(N4CCCCC4)nc4ccccc34)CC2)cc1 [Compound 89]
OUT: 10 to 50 µM

###

system: H37Rv strain of M. tuberculosis; assay: Alamar Blue Susceptibility Test (MABA); assay type: cell-based; details: Mycobacterium tuberculosis; H37Rv strain of M. tuberculosis; Alamar Blue; read-out: MABA (TB growth inhibition, colourimetric assay)
Counter-ions that a name gives are not always drawn.
Reported MIC values for the following molecules.

Answered examples (6):
Molecule | MIC
FC(F)(F)c1ccc(CNc2nc(N3CCCCC3)nc3ccccc23)cc1 [Compound 38] | < 10 µM
c1ccc(CCNc2nc(N3CCCCC3)nc3ccccc23)cc1 [Compound 33] | < 10 µM
CN(Cc1ccccc1)c1nc(NCc2ccccc2)c2ccccc2n1 [Compound 29] | 10 to 50 µM
c1ccc(CNc2nc(NC3Cc4ccccc4C3)nc3ccccc23)cc1 [Compound 131] | < 10 µM
O=C(Nc1nc(NCc2ccccc2)c2ccccc2n1)c1ccccc1 [Compound 73] | 50 to 128 µM
O=C(c1ccccc1)N1CCN(c2nc(NCc3ccc(F)cc3)c3ccccc3n2)CC1 [Compound 204] | 50 to 128 µM

IN: Please give the measured MIC for this molecule: Fc1ccc(CNc2nc(NCc3ccc(C(F)(F)F)o3)c3ccccc3n2)cc1 [Compound 159, hydrochloride]
OUT: < 10 µM

IN: Please give the measured MIC for this molecule: Fc1ccc(CNc2nc(N3CCC(F)(F)CC3)c3ccccc3n2)c(F)c1 [Compound 148]
OUT: 10 to 50 µM

IN: Please give the measured MIC for this molecule: CCC(CC)(Nc1nc(N2CCCC2)nc2ccccc12)c1ccccc1 [Compound 124]
OUT: < 10 µM

###

test system: H37Rv strain of M. tuberculosis; assay: Alamar Blue Susceptibility Test (MABA); format: cell-based; conditions: Mycobacterium tuberculosis; H37Rv strain of M. tuberculosis; Alamar Blue; read-out: MABA (TB growth inhibition, colourimetric assay)
Measured property: MIC

Compound | MIC
CC(Nc1nc(N2CCN(C(=O)C3CCCC3)CC2)nc2ccccc12)c1ccccc1 (stereo not drawn) | 10 to 50 µM
FC(F)(F)c1ccc(CNc2nc(N3CCOCC3)nc3ccccc23)cc1 | 10 to 50 µM
c1ccc2c(NCc3ccoc3)nc(N3CCCCC3)nc2c1 | 10 to 50 µM
FC(F)(F)c1ccccc1CNc1nc(N2CCCCC2)nc2ccccc12 | < 10 µM

IN: Under H37Rv strain of M. tuberculosis: MIC value of `c1csc(CNc2nc(N3CCCC3)nc3ccccc23)c1` ?
OUT: 10 to 50 µM

IN: Under H37Rv strain of M. tuberculosis: MIC value of `Cc1ccc(CNc2nc(NCc3ccc(Cl)cc3)c3ccccc3n2)cc1` ?
OUT: < 10 µM

IN: Under H37Rv strain of M. tuberculosis: MIC value of `c1ccc(CNc2nc(N3CCCCCC3)nc3ccccc23)cc1` ?
OUT: 10 to 50 µM

IN: Under H37Rv strain of M. tuberculosis: MIC value of `CCC(CC)(Nc1nc(N2CCCCC2)nc2ccccc12)c1ccccc1` ?
OUT: < 10 µM

IN: Under H37Rv strain of M. tuberculosis: MIC value of `COC(=O)[C@@H]1CCCN1c1nc(NCc2ccccc2)c2ccccc2n1` ?
OUT: 50 to 128 µM

###

tested on: H37Rv strain of M. tuberculosis; assay: Alamar Blue Susceptibility Test (MABA); type: cell-based; conditions: Mycobacterium tuberculosis; H37Rv strain of M. tuberculosis; Alamar Blue; read-out: MABA (TB growth inhibition, colourimetric assay)
Where a name gives a salt, the structure may show the parent alone.
Measured property: MIC

Answered examples (6):
Compound | Experimental value
Fc1ccc(CNc2nc(NCc3ccc(F)cc3)c3sccc3n2)cc1 | 10 to 50 µM
Cc1ccc(CNc2nc(NCc3ccc(C(F)(F)F)cc3)c3ccccc3n2)cc1 | < 10 µM
COc1ccc([C@@H](C)Nc2nc(N3CCCCC3)nc3ccccc23)cc1 | 10 to 50 µM
Fc1ccc(CNc2nc(N3CCC(F)(F)CC3)nc3cc(F)ccc23)cc1 | 10 to 50 µM
Fc1ccc(CNc2nc(NC3(c4ccc(F)cc4)CC3)c3ccccc3n2)cc1 | < 10 µM
c1ccc2c(NCC3CCCCC3)nc(N3CCCCC3)nc2c1 | < 10 µM

IN: Please give the measured MIC for this compound: `Clc1ccc(CNc2nc(N3CCOCC3)nc3ccccc23)cc1`
OUT: 10 to 50 µM

IN: Please give the measured MIC for this compound: `Fc1ccc(C2(Nc3nc(N4CCCCC4)nc4ccccc34)CC2)cc1`
OUT: 10 to 50 µM

IN: Please give the measured MIC for this compound: `CC(C)(C)OC(=O)N1CCc2c(nc(N3CCCCC3)nc2NCc2ccc(F)cc2)C1`
OUT: 50 to 128 µM

IN: Please give the measured MIC for this compound: `Oc1ccc(CNc2nc(N3CCCCC3)nc3ccccc23)cc1`
OUT: 10 to 50 µM

IN: Please give the measured MIC for this compound: `c1ccc(CNc2nc(N3Cc4ccccc4C3)nc3ccccc23)cc1`
OUT: < 10 µM

IN: Please give the measured MIC for this compound: `Cn1ncc2c(NCc3ccccc3)nc(N3CCCC3)nc21`
OUT: 50 to 128 µM

IN: Please give the measured MIC for this compound: CCOC(=O)CNc1nc(NCc2ccc(F)cc2)c2ccccc2n1 [Compound 206, hydrochloride]
OUT: 50 to 128 µM

IN: Please give the measured MIC for this compound: `Fc1ccc(Nc2nc(N3CCCC3)nc3nccnc23)cc1`
OUT: 50 to 128 µM

IN: Please give the measured MIC for this compound: c1ccc2c(c1)CC(Nc1nc(N3CCCCC3)nc3ccccc13)C2 [Compound 86, hydrochloride]
OUT: 10 to 50 µM

IN: Please give the measured MIC for this compound: `c1ccc(CNc2nc(NCc3ccccc3)c3ccccc3n2)cc1`
OUT: 10 to 50 µM

IN: Please give the measured MIC for this compound: `COc1ccc(CNc2nc(N3CCCCC3)nc3ccccc23)cc1`
OUT: < 10 µM

IN: Please give the measured MIC for this compound: `c1csc(CNc2nc(N3CCCCC3)nc3ccccc23)c1`
OUT: < 10 µM
